Reference for the values: ChEMBL document CHEMBL1151495

# Tested on: Staphylococcus aureus
# protocol: In vitro minimum inhibitory concentration against Staphylococcus aureus SN 43.
# Assay type: functional
reported metric: MIC (mg/L)

INPUT: Report MIC for `C[C@@H](O)[C@H]1C(=O)N2C(C(=O)O)=C(COc3cncc4ccccc34)S[C@H]12` please.
OUTPUT: 12.5

INPUT: Give the measured MIC of `C[C@@H](O)[C@H]1C(=O)N2C(C(=O)O)=C(COC(=O)c3cnc4ccccc4c3)S[C@H]12` .
OUTPUT: 12.5

INPUT: Quick one: MIC of `C[C@@H](O)[C@H]1C(=O)N2C(C(=O)O)=C(COc3cccnc3)S[C@H]12` ?
OUTPUT: 100

INPUT: GET /values?readout=MIC&item= `C[C@@H](O)[C@H]1C(=O)N2C(C(=O)O)=C(COC(=O)c3cccnc3)S[C@H]12`
OUTPUT: 100

INPUT: If you can, please state the reported MIC value of `C[C@@H](O)[C@H]1C(=O)N2C(C(=O)O)=C(COC(=O)c3ccc4c(ccc5ccccc54)c3)S[C@H]12` .
OUTPUT: 6.25

A = C[C@@H](O)[C@H]1C(=O)N2C(C(=O)O)=C(COC(N)=O)S[C@H]12 [RITIPENEM]
B = C[C@@H](O)[C@H]1C(=O)N2C(C(=O)O)=C(COc3c(I)cc(Cl)c4cccnc34)S[C@H]12
C = C[C@@H](O)[C@H]1C(=O)N2C(C(=O)O)=C(COC(=O)c3ccc4ccccc4c3)S[C@H]12
INPUT: Please list the entries, largest MIC first. Response field: labels, in requested order.
OUTPUT: A, B, C
(A: 100 mg/L, B: 25 mg/L, C: 6.25 mg/L)

1 = C[C@@H](O)[C@H]1C(=O)N2C(C(=O)O)=C(COC(=O)c3cn(C4CC4)c4cc(N5CCNCC5)c(F)cc4c3=O)S[C@H]12
2 = C[C@@H](O)[C@H]1C(=O)N2C(C(=O)O)=C(COC(=O)c3ccc4ccc5ccccc5c4c3)S[C@H]12
INPUT: Could you tell me which of these two has the smaller MIC figure? First: 1 Second: 2 Give the label under which the chosen entry appears.
OUTPUT: 2

P = C[C@@H](O)[C@H]1C(=O)N2C(C(=O)O)=C(COc3ccccc3)S[C@H]12
Q = C[C@@H](O)[C@H]1C(=O)N2C(C(=O)O)=C(COC(=O)c3ccccc3)S[C@H]12
INPUT: Field: lower MIC | Options: P / Q // output: label of the selected item
OUTPUT: Q

---

# System: Staphylococcus aureus
# protocol: In vitro minimum inhibitory concentration against Staphylococcus aureus COL.
# Assay type: functional
reported metric: MIC (µg/mL)

The examples below pair each entry with its known result.
INPUT: Tell me the measured MIC of C[C@@H](O)[C@H]1C(=O)N2C(C(=O)O)=C(COC(N)=O)S[C@H]12 [RITIPENEM] , please.
OUTPUT: 100

INPUT: Recorded MIC for `C[C@@H](O)[C@H]1C(=O)N2C(C(=O)O)=C(COc3ccccc3)S[C@H]12` , please?
OUTPUT: 50

I = C[C@@H](O)[C@H]1C(=O)N2C(C(=O)O)=C(COc3c(I)cc(Cl)c4cccnc34)S[C@H]12
II = C[C@@H](O)[C@H]1C(=O)N2C(C(=O)O)=C(COC(=O)c3cnccn3)S[C@H]12
III = C[C@@H](O)[C@H]1C(=O)N2C(C(=O)O)=C(COC(=O)c3ccc4ccccc4c3)S[C@H]12
IV = C[C@@H](O)[C@H]1C(=O)N2C(C(=O)O)=C(COc3cncc(Cl)c3)S[C@H]12
V = C[C@@H](O)[C@H]1C(=O)N2C(C(=O)O)=C(COC(=O)c3ccc4c(ccc5ccccc54)c3)S[C@H]12
INPUT: Arrange items by their MIC values in increasing order. Reply with the item labels sorted in the order that was asked for.
OUTPUT: V, I, III, IV, II
